Target: T1, GPC3 on HepG2 cells (human, UniProt P51654 25-554)
T1 construct: whole, on cells; also called glypican-3
Test: FACS on HepG2 cells
Reported Max MFI values for a set of binders

Consider the worked cases shown below.
// Max MFI lookup, key: hAb006LH3L1e (antibody, human IgG1, V domains shown, Humanized F3.38.7, H3+L1e) VH: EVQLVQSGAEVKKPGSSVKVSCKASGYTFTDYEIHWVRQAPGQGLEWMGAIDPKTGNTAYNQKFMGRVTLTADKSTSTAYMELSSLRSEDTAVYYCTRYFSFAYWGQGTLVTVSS VL: DIVMTQTPLSLPVTPGEPASISCRSSQTFVHSNVNTYLQWYLQKPGQSPQLLIYKVSNRFSGVPDRFSGSGSGTDFTLKISRVEAEDVGVYYCFQGSHVPYTFGQGTKLEIK 2780

// Max MFI lookup, key: hAb007LH1L1d (antibody, human IgG1, V domains shown, Humanized F3.81.19, H1+L1d) VH: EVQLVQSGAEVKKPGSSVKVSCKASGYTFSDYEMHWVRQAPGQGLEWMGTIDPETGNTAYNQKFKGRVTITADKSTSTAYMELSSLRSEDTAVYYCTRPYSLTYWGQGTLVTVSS VL: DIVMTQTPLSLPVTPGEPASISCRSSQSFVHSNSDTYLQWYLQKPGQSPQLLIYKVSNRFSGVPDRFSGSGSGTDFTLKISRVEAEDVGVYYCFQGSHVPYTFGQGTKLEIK 3830

// Max MFI lookup, key: hAb007LH1L1c (antibody, human IgG1, V domains shown, Humanized F3.81.19, H1+L1c) VH: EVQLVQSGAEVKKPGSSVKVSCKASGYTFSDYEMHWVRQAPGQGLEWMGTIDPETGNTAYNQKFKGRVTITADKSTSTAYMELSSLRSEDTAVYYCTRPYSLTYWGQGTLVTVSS VL: DIVMTQTPLSLPVTPGEPASISCRSSQSFVHSNADTYLQWYLQKPGQSPQLLIYKVSNRFSGVPDRFSGSGSGTDFTLKISRVEAEDVGVYYCFQGSHVPYTFGQGTKLEIK 3770

More entries:
// Max MFI lookup, key: hAb006LH3L1b (antibody, human IgG1, V domains shown, Humanized F3.38.7, H3+L1b) VH: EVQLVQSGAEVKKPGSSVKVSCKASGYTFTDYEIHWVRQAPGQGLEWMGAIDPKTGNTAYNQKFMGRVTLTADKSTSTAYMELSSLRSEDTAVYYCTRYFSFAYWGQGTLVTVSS VL: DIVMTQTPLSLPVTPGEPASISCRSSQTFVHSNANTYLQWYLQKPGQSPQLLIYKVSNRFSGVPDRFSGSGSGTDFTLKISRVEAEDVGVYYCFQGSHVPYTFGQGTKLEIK 4610

// Max MFI lookup, key: hAb007LH1L1e (antibody, human IgG1, V domains shown, Humanized F3.81.19, H1+L1e) VH: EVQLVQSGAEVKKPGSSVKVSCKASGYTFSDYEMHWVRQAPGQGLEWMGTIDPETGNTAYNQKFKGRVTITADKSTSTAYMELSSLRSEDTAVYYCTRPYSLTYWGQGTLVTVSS VL: DIVMTQTPLSLPVTPGEPASISCRSSQSFVHSNVDTYLQWYLQKPGQSPQLLIYKVSNRFSGVPDRFSGSGSGTDFTLKISRVEAEDVGVYYCFQGSHVPYTFGQGTKLEIK 2910
